- Tested on: HSkMC
- Experiment Notes: cytotoxicity call (relative viability < 0.9)
- Condition Notes: 10 µM
In all, about 39,000 compounds went through this assay and about 1,500 (3.8%) were called active. The sample holds actives, similar compounds and a random draw of the others, so the mix is not that of the screen.
Outcomes: yes (1) = active, no (0) = inactive

INSERT INTO results (compound, discrete_label) VALUES
  ('[O-][n+]1ccccc1[S][Zn][S]c1cccc[n+]1[O-]', 'yes (1)'),
  ('CCN(C)C(=O)Oc1cccc(C(C)N(C)C)c1.O=C(O)C(O)C(O)C(=O)O (stereo unspecified)', 'no (0)'),
  ('CC12CCC3C(CCC4CC(O)CCC43C)C1CCC2O (stereo unspecified)', 'no (0)'),
  ('CC(C)=CCCC1(C)C=Cc2c(O)c3c(c(CC=C(C)C)c2O1)OC12C(=CC4CC1C(C)(C)OC2(CC=C(C)C(=O)O)C4=O)C3=O (stereo unspecified)', 'yes (1)'),
  ('CO[C@H]1[C@@H](O)[C@@H](O[C@H]2CC[C@]3(C=O)[C@@H]4[C@@H](CC[C@]3(O)C2)[C@@]2(O)CC[C@H](C3=CC(=O)OC3)[C@@]2(C)C[C@H]4OC(C)=O)O[C@@H](C)[C@@H]1OC(C)=O', 'no (0)'),
  ('CN1CC[C@]2(CCCO2)C1', 'no (0)'),
  ('COc1ccn(C)c(=O)c1C#N', 'no (0)'),
  ('COC(=O)C[C@@H]1CC[C@H]2NC[C@@H](O)COC[C@@H]2O1', 'no (0)'),
  ('CC(=O)O[C@H]1C[C@@H]2CC[C@@H]3[C@H](CC[C@@]4(C)[C@H]3C[C@H]([N+]3(C)CCCCC3)[C@@H]4OC(C)=O)[C@@]2(C)C[C@@H]1[N+]1(C)CCCCC1', 'no (0)'),
  ('S=C=Nc1cccc(C2(N3CCCCC3)CCCCC2)c1', 'no (0)'),
  ('C[N+]12CCC(CC1)C(OC(=O)C(O)(c1ccccc1)c1ccccc1)C2.[Br-] (stereo unspecified)', 'no (0)'),
  ('CCC1(C2OC(C3OC(O)(CO)C(C)CC3C)CC2C)CCC(C2(C)CCC3(CC(O)C(C)C(C(C)C(OC)C(C)C(=O)[O-])O3)O2)O1.[Na+] (stereo unspecified)', 'no (0)'),
  ('CC12CC(=O)C3C(CCC4=CC(=O)CCC43C)C1CCC2=O (stereo unspecified)', 'no (0)'),
  ('C=C(C)C1C2OC(=O)C1C1(O)CC3OC34C(=O)OC2C14C (stereo unspecified)', 'no (0)'),
  ('OCC(Br)(Br)Br', 'no (0)'),
  ('NC[C@H]1CCCc2ccc(Cl)cc21', 'no (0)'),
  ('CN1CCc2cc3c(cc2[C@@H]1O)OCO3', 'no (0)'),
  ('CCC[C@@H](CN)c1ccc(F)cc1', 'no (0)'),
  ('CN1CCc2cc3c(cc2C1O)OCO3.Cl (stereo unspecified)', 'no (0)');

====

- Tested on: HSkMC
- Experiment Notes: cytotoxicity call (relative viability < 0.9)
- Condition Notes: 10 µM
Out of some 39,000 compounds screened, about 1,500 (3.8%) were called active. The sample holds actives, similar compounds and a random draw of the others, so the mix is not that of the screen.
Outcomes: active, inactive

INSERT INTO measurements (compound, discrete_label) VALUES
  ('COCC(=O)N1C[C@@H]2c3ccccc3CN[C@@H]2C1', 'inactive'),
  ('O=C(NN=Cc1ccc([N+](=O)[O-])o1)c1cc([N+](=O)[O-])cc([N+](=O)[O-])c1O', 'inactive'),
  ('CC(=O)OC1CCC2(C)C(CCC3C2CCC2(C)C(C4=CC(=O)OC4)C(OC(C)=O)CC32O)C1 (stereo unspecified)', 'active'),
  ('NCCO.NCCO.O[AsH]O[AsH]O (stereo unspecified)', 'inactive'),
  ('O=[N+]([O-])c1cc([As](=O)(O)O)ccc1O', 'inactive'),
  ('CC(=O)O[C@H]1C[C@H](O[C@H]2[C@@H](O)C[C@H](O[C@H]3[C@@H](O)C[C@H](O[C@H]4CC[C@@]5(C)[C@@H](CC[C@H]6[C@@H]5C[C@@H](O)[C@]5(C)[C@@H](C7=CC(=O)OC7)CC[C@]65O)C4)O[C@@H]3C)O[C@@H]2C)O[C@H](C)[C@H]1O[C@@H]1O[C@H](CO)[C@@H](O)[C@H](O)[C@H]1O', 'active');

====

- System: HSkMC (human skeletal muscle cells)
- Experiment Notes: cytotoxicity call (relative viability < 0.9)
- Condition Notes: 10 µM
The whole screen tested about 39,000 compounds, of which about 1,500 (3.8%) were called active. This is one part of a sample in which actives are shown more often than they occur.
Classes used: Y for active, N for inactive

INSERT INTO results (compound, discrete_label) VALUES
  ('CC1=C(O)C(=O)C=C2C1=CC=C1C2(C)CCC2(C)C3CC(C)(C(=O)O)CCC3(C)CCC12C (configuration not stated)', 'Y'),
  ('Oc1cc(Cl)ccc1Oc1ccc(Cl)cc1Cl', 'N'),
  ('c1cn(C[C@H]2CC[C@H]3NCCO[C@@H]23)cn1', 'N'),
  ('C=CCC1(O)CCC2C3CCC4=CCCCC4C3CCC21C (configuration not stated)', 'Y'),
  ('Cc1cc([C@@H](C#N)c2ccc(Cl)cc2)c(Cl)cc1NC(=O)c1cc(I)cc(I)c1O', 'Y'),
  ('CC[C@@H]1/C=C/C=C/C[C@H](C)[C@@H](O)[C@](C)(O)C(=O)[C@H](C)[C@@H](O)[C@H](C)C(=O)[C@H](C)[C@@H](O)[C@H](C)/C=C/C(=O)O[C@H]2[C@@H](C)[C@@H](CC1)O[C@@]1(CC[C@@H](C)[C@@H](C[C@H](C)O)O1)[C@@H]2C', 'N'),
  ('CCC(COC(=O)c1cc(OC)c(OC)c(OC)c1)(c1ccccc1)N(C)C.O=C(O)C=CC(=O)O (configuration not stated)', 'N'),
  ('COC1=CC(=O)OC(C=Cc2ccccc2)C1 (configuration not stated)', 'N'),
  ('Cc1nc(-c2ccc(-c3ccc(C(=O)N4CCc5cc6c(cc54)C4(CCN(C)CC4)CO6)cc3)c(C)c2)no1', 'Y'),
  ('C[N+]1(C)CCCC(OC(=O)C(O)(c2ccccc2)c2ccccc2)C1.[Br-] (configuration not stated)', 'N'),
  ('Oc1ccc(Cl)cc1Cc1cc(Cl)ccc1O', 'N'),
  ('Cc1cc(O[C@@H]2O[C@H](CO)[C@@H](O)[C@H](O)[C@H]2O)c2c3c(c(=O)oc2c1)CCC3', 'N'),
  ('Cc1cc(C(C#N)c2ccc(Cl)cc2)c(Cl)cc1NC(=O)c1cc(I)cc(I)c1O (configuration not stated)', 'N'),
  ('CCOC(=O)c1c(CN2CCN(Cc3ccccc3)CC2)n(Cc2ccccc2)c2cc(Br)c(O)cc12', 'Y'),
  ('[N-]=[N+]=NCc1ccccc1C[C@]1(C(=O)NCc2ccccc2)N=C(c2ccc(OCCCO)cc2)O[C@H]1c1ccccc1N=[N+]=[N-]', 'N'),
  ('O=C1C[C@H](c2ccccc2)[C@@H]2CNCCN12', 'N'),
  ('Cl.OC1CCCCC1N1CCC(c2ccccc2)CC1 (configuration not stated)', 'N'),
  ('Nc1c[n+](CCc2ccccc2)no1', 'N'),
  ('CNC(=O)[C@H]1Cn2ccnc2C2(CCNCC2)O1', 'N'),
  ('Cc1cccc2[nH]c(CCN)nc12', 'N'),
  ('N#C[C@]1(O)CN2CCC1CC2', 'N'),
  ('CO[C@H]1[C@H](O)[C@@H](O[C@H]2[C@@H](C)O[C@@H](O[C@H]3[C@H](C)O[C@H](O[C@H]4CC[C@@]5(C)[C@@H](CC[C@@]6(O)[C@@H]5C[C@@H](O)[C@]5(C)[C@]6(O)CC[C@@]5(O)[C@@H](C)O)C4)C[C@@H]3OC)C[C@H]2OC)O[C@@H](C)[C@H]1O', 'N'),
  ('CC12CCC3C(CCC4(O)CC(O)CCC34C=O)C1(O)CCC2C1=CC(=O)OC1 (configuration not stated)', 'Y'),
  ('CC1=C[C@H]2O[C@@H]3[C@H](O)[C@@H](O[C@H]4O[C@H](CO)[C@@H](O)[C@H](O)[C@H]4O)[C@](C)([C@@]2(CO)CC1)[C@]31CO1', 'Y'),
  ('CC(=O)[O][Hg][c]1ccccc1', 'Y'),
  ('Cc1cnc(C(=O)N2C[C@H]3CNC[C@H]3C2)cn1', 'N'),
  ('Cc1ccc(N2CCO[C@@H]3CNCC[C@H]3C2)nn1', 'N'),
  ('CCOC(=O)c1c(CN2CCN(c3ccccc3)CC2)n(Cc2ccccc2)c2cc(Br)c(O)cc12', 'Y'),
  ('CCOC1OC2OC3(C)CCC4C(C)CCC(C1C)C24OO3 (configuration not stated)', 'N'),
  ('C=C1[C@@H](C)[C@H]2[C@H](Cc3ccccc3)NC(=O)[C@]23[C@H](OC(C)=O)/C=C/[C@](C)(O)C(=O)[C@@H](C)C/C=C/[C@H]3[C@@H]1O', 'Y'),
  ('Cc1ccc2c(CCN)c(C)n(C)c2c1', 'N'),
  ('CN1CCN(C(=O)CN=[N+]=[N-])CC1', 'N'),
  ('CC[C@H]1/C=C/C=C/C[C@@H](C)[C@H](O)[C@@](C)(O)C(=O)[C@@H](C)[C@H](O)[C@@H](C)C(=O)[C@@H](C)[C@H](O)[C@@H](C)/C=C/C(=O)O[C@@H]2[C@H](C)[C@H](CC1)O[C@]1(CC[C@H](C)[C@H](C[C@@H](C)O)O1)[C@H]2C', 'Y'),
  ('c1ccc2c(c1)sc1ccccc12', 'Y'),
  ('CCC1(O)C(=O)OCc2c1cc1n(c2=O)Cc2cc3ccccc3nc2-1 (configuration not stated)', 'N'),
  ('COc1cc([C@@H](O)CN)ccc1O', 'N'),
  ('C=CCC1(O)CCC2C3CCC4=CC(=O)CCC4=C3C=CC21C (configuration not stated)', 'N');
